Reference source for all entries: ChEMBL document CHEMBL3608254

study system: Gamma-secretase
procedure summary: Inhibition of gamma-secretase in human SH-SY5Y cells expressing beta-APP C-terminal fragment SPA4CT assessed as decrease of amyloid beta-40 level by electrochemiluminescent method
Format: cell-based
Form field: pIC50 (one value per entry).
Would you please state pIC50, meaning minus log10 of the concentration in mol/L, as a bare number?

| compound | study system | pIC50 |
| --- | --- | --- |
| COc1cc(-c2cn(C3CCc4ccccc4N(C)C3=O)nn2)ccc1-n1cnc(C)c1 (stereo not given) | Gamma-secretase | 5.51 |
| COc1cc(-c2cn(C3CCc4c(ccc(Br)c4F)N(CC(F)(F)F)C3=O)nn2)ccc1-n1cnc(C)c1 (stereo not given) | Gamma-secretase | 7.30 |
| COc1cc(-c2cn(C3CCc4ccccc4N(CC4CC4)C3=O)nn2)ccc1-n1cnc(C)c1 (stereo not given) | Gamma-secretase | 5.40 |
| COc1cc(-c2cn(C3CCc4cc(F)ccc4N(CC(F)(F)F)C3=O)nn2)ccc1-n1cnc(C)c1 (stereo not given) | Gamma-secretase | 6.72 |

Ask: What measured pIC50 goes with COc1cc(-c2cn(C3CCc4ccccc4NC3=O)nn2)ccc1-n1cnc(C)c1 (stereo not given) ?
Reply: 5.33

Ask: Give its pIC50 value. Item: COc1cc(-c2cn(C3CCc4ccccc4N(Cc4ccncc4)C3=O)nn2)ccc1-n1cnc(C)c1 (racemic)
Reply: 5.17

Ask: Quick one: pIC50 of COc1cc(-c2cn(C3CCc4ccccc4N(Cc4ccccc4)C3=O)nn2)ccc1-n1cnc(C)c1 (racemic) ?
Reply: 5.70

Ask: Need pIC50, item COc1cc(-c2cn(C3CCc4ccccc4N(CC4(C)COC4)C3=O)nn2)ccc1-n1cnc(C)c1 (racemic)
Reply: 5.13

Ask: Which pIC50 is listed for `COc1cc(-c2cn([C@H]3C[C@H](C)c4ccccc4N(CC(F)(F)F)C3=O)nn2)ccc1-n1cnc(C)c1` ?
Reply: 6.77

Ask: Record request: pIC50 value, item COc1cc(-c2cn(C3CCc4ccccc4N(CC(F)(F)F)C3=O)nn2)ccc1-n1cnc(C)c1 (stereo not given)
Reply: 6.49
